- SUBJECT_OF_TEST: RAC-alpha serine/threonine-protein kinase (Homo sapiens) (UniProt P31749)
- Sequence (P31749 whole entry): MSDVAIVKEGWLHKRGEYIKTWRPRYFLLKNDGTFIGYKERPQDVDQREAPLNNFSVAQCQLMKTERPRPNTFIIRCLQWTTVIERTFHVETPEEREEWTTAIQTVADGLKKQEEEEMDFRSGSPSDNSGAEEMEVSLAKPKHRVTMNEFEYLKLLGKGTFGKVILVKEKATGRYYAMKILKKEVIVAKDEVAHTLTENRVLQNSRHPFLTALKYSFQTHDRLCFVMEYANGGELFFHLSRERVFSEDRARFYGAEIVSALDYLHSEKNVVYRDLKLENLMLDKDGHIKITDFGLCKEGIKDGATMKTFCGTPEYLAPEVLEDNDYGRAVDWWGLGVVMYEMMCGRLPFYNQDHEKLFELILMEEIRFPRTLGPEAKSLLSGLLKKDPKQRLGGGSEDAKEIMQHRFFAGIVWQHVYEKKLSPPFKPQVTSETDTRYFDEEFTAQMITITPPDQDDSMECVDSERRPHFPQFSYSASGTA
- RUN_PARAMETERS: at 0.1 µM;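 also: reported values are mean inhibition figures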
VALUE_TYPE: inhibition (%)

>>> df
                                query_smiles  assay_value
 0  Cc1ccc2c(-c3ccnc(Nc4cccc(C(F)(F)F)c4)n3)c(-c3ccccc3)nn2n1         0.89
 1  COc1cccc(-n2ncc3c(N/N=C/c4ccc(C)cc4)ncnc32)c1         1.26
 2  Cc1ccc(NC(=O)CC2CC2)cc1-c1ccc(C(=O)NCC2CC2)cc1         0.17
 3  Cc1ccc2c(c1)/C(=N/Nc1ccc(S(N)(=O)=O)cc1)C(=O)N2         0.76
 4  COc1cc(Nc2nccc(-c3cnn4ncccc34)n2)cc(OC)c1         0.23
 5  O=C(Nc1ccc(Oc2ccc3[nH]c(NC(=O)c4ccco4)nc3c2)cc1)Nc1cc(C(F)(F)F)ccc1F        -3.62
 6  O=C1Nc2ccccc2/C1=C/Nc1ccc2[nH]c(=O)[nH]c2c1         0.44
 7  c1ccc(Cc2nc3ccc(Nc4ncnc5ccccc45)cc3[nH]2)cc1         0.62
 8  CN(C)c1cc2c(Nc3ccc4c(cnn4Cc4ccccc4)c3)ncnc2cn1         0.51
 9  CCn1c(-c2nonc2N)nc2c(C#CC(C)(C)O)nc(OCCNC)cc21         20.8
10  CC(C)c1ccc2c(c1)NC(=O)/C2=N/Nc1ccc(S(N)(=O)=O)cc1        -0.05
11  NS(=O)(=O)c1ccc(NC=C2C(=O)Nc3ccc4ncsc4c32)cc1         1.23
12  COc1cccc(-n2nc(C)c3c(N/N=C(\C)c4ccncc4)ncnc32)c1        -0.15
13  ON=C1CCc2cc(-c3nc(C4CCNCC4)[nH]c3-c3ccncc3)ccc21         0.07
14         N#Cc1c(NC(=O)c2ccccc2F)sc2c1CCCC2        -0.97
15  Oc1cccc(-c2nc(-c3ccccc3)[nH]c2-c2ccncc2)c1         -0.1
16  Nc1nccc(-c2c(-c3ccc(F)cc3)ncn2CCCN2CCOCC2)n1         1.68
17  NS(=O)(=O)c1cccc(-c2cc3ccncc3cc2OCc2ccccc2)c1         1.37
18     COc1cc(/C=N/Nc2ncnc3c2cnn3C(C)C)ccc1O        -0.05
19  CS(=O)(=O)CCNCc1nc(-c2ccc3ncnc(Nc4ccc(OCc5cccc(C(F)(F)F)c5)cc4)c3c2)cs1          0.2
20  CN1CCN(C(=O)c2ccc(NC(=O)Nc3ccc(N(C)c4ccnc(Nc5ccc(CS(C)(=O)=O)cc5)n4)cc3)cc2)CC1          0.3
